- Assay System: T1, full-length human TIGIT on cells (human, UniProt Q495A1 22-244)
- T1 construct: whole, on cells; The same protein is used for CHO-hTIGIT, PBMC and NK92-hTIGIT; the cells are named under assay; also called CHO-hTIGIT; hTIGIT
- T1 sequence (looked up): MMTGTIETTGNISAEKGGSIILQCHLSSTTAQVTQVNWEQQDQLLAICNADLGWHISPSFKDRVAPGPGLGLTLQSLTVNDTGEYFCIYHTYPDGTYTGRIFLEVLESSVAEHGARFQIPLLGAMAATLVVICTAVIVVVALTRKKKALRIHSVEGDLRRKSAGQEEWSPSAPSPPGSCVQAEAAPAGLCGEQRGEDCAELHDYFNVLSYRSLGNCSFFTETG
- Method Notes: FACS titration on CHO-hTIGIT cells, PE goat anti-mouse IgG
Readout: pEC50
Conceptually, pEC50 converts a concentration in mol/L into minus its log10.

Which measured pEC50 value corresponds to 3Tigit-16 mouse monoclonal antibody (antibody, V domains shown, Mouse monoclonal antibody from hybridoma) VH: EVQLQQSGPELVKPGASVKMSCKASGFTFTDYFMDWVKQSRGASFEWIGRLNPNNGRTSYNQKFKGKATLTVDKSSSTAYMELNSLTSEDSAVYYCARGDLGRWYFDVWGAGTTVTVSS VL: QIVLTQSPAIMSASPGEKVTMTCSASSSVSYMHWYQQKSGTSPKRWIYDTSKLASGVPTRFSGSGSGTSYSLTISSMEAEDAASYFCQQWSSNSLTFGAGTKLELKR ?
9.42
